- target-or-system: Phosphatidylinositol 4,5-bisphosphate 3-kinase catalytic subunit beta isoform (Homo sapiens, UniProt P42338)
- Sequence (P42338 whole entry, canonical isoform): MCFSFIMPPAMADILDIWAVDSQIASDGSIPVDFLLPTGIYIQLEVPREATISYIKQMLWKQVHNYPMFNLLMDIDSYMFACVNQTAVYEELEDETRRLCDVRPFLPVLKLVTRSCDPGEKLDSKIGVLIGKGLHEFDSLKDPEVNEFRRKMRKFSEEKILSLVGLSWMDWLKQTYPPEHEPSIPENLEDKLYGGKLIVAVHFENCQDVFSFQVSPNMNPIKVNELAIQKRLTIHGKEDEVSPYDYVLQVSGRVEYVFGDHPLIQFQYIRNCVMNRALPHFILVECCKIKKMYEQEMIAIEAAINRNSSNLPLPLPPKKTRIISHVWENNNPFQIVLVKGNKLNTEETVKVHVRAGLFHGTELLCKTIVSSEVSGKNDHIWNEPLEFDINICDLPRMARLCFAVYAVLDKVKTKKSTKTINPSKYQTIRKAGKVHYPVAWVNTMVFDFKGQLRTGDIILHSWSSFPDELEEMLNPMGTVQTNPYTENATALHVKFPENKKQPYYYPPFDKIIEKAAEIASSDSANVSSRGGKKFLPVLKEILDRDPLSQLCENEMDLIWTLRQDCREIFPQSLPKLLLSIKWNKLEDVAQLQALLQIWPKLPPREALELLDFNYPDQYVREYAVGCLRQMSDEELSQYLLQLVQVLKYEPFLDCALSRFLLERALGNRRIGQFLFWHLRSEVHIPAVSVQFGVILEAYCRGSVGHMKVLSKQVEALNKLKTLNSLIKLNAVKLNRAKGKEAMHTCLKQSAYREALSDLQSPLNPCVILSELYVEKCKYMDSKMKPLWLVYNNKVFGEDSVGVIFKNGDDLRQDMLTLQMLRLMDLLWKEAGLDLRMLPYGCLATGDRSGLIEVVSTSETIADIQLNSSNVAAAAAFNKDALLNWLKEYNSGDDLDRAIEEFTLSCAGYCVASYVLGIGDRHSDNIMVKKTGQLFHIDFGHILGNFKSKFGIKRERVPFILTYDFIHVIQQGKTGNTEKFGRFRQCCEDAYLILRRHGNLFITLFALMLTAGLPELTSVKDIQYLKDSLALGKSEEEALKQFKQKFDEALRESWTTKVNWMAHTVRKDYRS
- assay-info: Inhibition of PI3K beta (unknown origin) assessed as [33P] incorporation in substrate by TopCount microplate scintillation counting analysis
quantity: IC50

Give the measured IC50 of COc1ccc(Oc2cc(C)c(-c3csc(NC(=O)c4ccnc(F)c4)n3)c(C)c2)cc1 .
> 10 µM

----------
- assay-info: Half life in rat liver microsomes at 1 uM by LC-MS/MS analysis
- Type: ADME
quantity: half-life at 1 µM (h)
Your answer is read as h, so omit the unit and give the number.

Give the measured half-life at 1 µM of COc1ccc(Oc2cc(C)c(-c3csc(NC(=O)c4ccnc(F)c4)n3)c(C)c2)cc1 .
5.67
